Test system: HIV-1IIIB infected MT-4 cells
TEST PROTOCOL: Antiviral activity in HIV-1IIIB infected MT-4 cells, MTT method (Test Examples 1 and 5)
Assay type: cell-based
CONDITION DESCRIPTION: Human immunodeficiency virus 1, MT4; as in Test Example 1; Table 5; read-out: HIV Activity EC50
Item-by-item account of EC50
Please give a number only; it is taken to be in nM.

CCCN(CCC)Cc1ccc(NC(=O)c2ccc(CN(Cc3ccc(C)cn3)Cc3nccn3C)cc2)cc1
7

Exercise: # get_value(readout='EC50', item= CCCN(CCC)Cc1ccc(NC(=O)c2ccc(CN(Cc3ccncc3)Cc3ncc[nH]3)cc2)cc1 )
Solution: 97

Exercise: # get_value(readout='EC50', item= CCCN(CCC)Cc1ccc(NC(=O)c2ccc(CN(Cc3ncc[nH]3)Cc3nccc4ccccc34)cc2)cc1 )
Solution: 81

---

Test system: HIV-1IIIB infected MT-4 cells
TEST PROTOCOL: Antiviral activity in HIV-1IIIB infected MT-4 cells, MTT method (Test Examples 1 and 5)
Assay type: cell-based
CONDITION DESCRIPTION: Human immunodeficiency virus 1, MT4; as in Test Example 1; Table 5; read-out: HIV Activity EC50
pEC50: −log10 of the molar value.
satisfied means recorded pEC50 is 7 or above; not satisfied means it is below 7.

CCCN(CCC)Cc1ccc(NC(=O)c2ccc(CN(Cc3ccccn3)Cc3ncc[nH]3)cc2)cc1
satisfied
CCCN(CCC)Cc1ccc(NC(=O)c2ccc(CN(Cc3cc4ccccc4cn3)Cc3ncc[nH]3)cc2)cc1
satisfied
CCCN(CCC)Cc1ccc(NC(=O)c2ccc(CN(Cc3ncc[nH]3)Cc3ncc[nH]3)c3ccccc23)cc1
not satisfied
CCCN(CCC)Cc1ccc(NC(=O)c2ccc(CN(Cc3ccc4ccccc4n3)Cc3ncc[nH]3)cc2)cc1
not satisfied
CCCN(CCC)Cc1ccc(NC(=O)c2ccc(CN(Cc3ncc[nH]3)Cc3ncc(C)c(OC)c3C)cc2)cc1
satisfied

Kindly consider the entry below.
Exercise: Quick check, pEC50 >= 7? CCCN(CCC)Cc1ccc(NC(=O)c2ccc(CN(Cc3ncc[nH]3)Cc3ncccc3OCC)cc2)cc1
Solution: satisfied

---

MEASURED TARGET: CXCR4 (Homo sapiens, UniProt P61073)
Construct: endogenous in cells; host or cells: MT-4 cells
Sequence (P61073 whole entry): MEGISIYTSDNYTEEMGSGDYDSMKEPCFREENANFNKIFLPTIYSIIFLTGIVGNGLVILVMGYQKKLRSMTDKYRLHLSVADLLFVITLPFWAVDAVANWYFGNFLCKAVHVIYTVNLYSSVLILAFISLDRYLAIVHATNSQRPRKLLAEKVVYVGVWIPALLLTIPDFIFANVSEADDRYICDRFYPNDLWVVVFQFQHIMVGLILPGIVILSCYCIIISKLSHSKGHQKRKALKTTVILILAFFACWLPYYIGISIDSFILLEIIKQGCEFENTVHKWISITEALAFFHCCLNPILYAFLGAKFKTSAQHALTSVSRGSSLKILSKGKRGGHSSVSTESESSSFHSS
TEST PROTOCOL: Inhibition of 125I-SDF-1α binding to receptors CXCR4 on MT-4 cells (Test Examples 2 and 5)
CONDITION DESCRIPTION: binding-inhibition % at 0.1 μM, as in Test Example 2; Table 5; read-out: CXCR4 Activity % at 0.1 μM
EXPERIMENTAL READOUT: inhibition at 0.1 µM (%)
Please give a number only; it is taken to be in %.

A selection of reference data follows.
CCCN(CCC)Cc1ccc(NC(=O)c2ccc(CN(Cc3ccncc3)Cc3ncc[nH]3)cc2)cc1 [Compound No. 58]
18.6
CCCN(CCC)Cc1ccc(NC(=O)c2ccc(CN(Cc3ccc4cccc(O)c4n3)Cc3ncc[nH]3)cc2)cc1 [Compound No. 72]
100
CCCN(CCC)Cc1ccc(NC(=O)c2ccc(CN(Cc3ccc(CC)cn3)Cc3ncc[nH]3)cc2)cc1 [Compound No. 102]
98.4
CCCN(CCC)Cc1ccc(NC(=O)c2ccc(CN(Cc3ncc[nH]3)Cc3ncc(C)c(OC)c3C)cc2)cc1 [Compound No. 64]
100
CCCN(CCC)Cc1cccc(NC(=O)c2ccc(CN(Cc3ncc[nH]3)Cc3ncc[nH]3)cc2)c1 [Compound No. 33]
97.8
Cn1ccnc1CN(Cc1ccc(C(=O)Nc2ccc(CNC3CCCCC3)cc2)cc1)Cc1ncc[nH]1 [Compound No. 88]
99

Exercise: # get_value(readout='inhibition at 0.1 µM', item= CCCN(CCC)Cc1ccc(NC(=O)c2ccc(CN(Cc3ncc[nH]3)Cc3ncc(C)cc3C)cc2)cc1 [Compound No. 101] )
Solution: 99.1

Exercise: # get_value(readout='inhibition at 0.1 µM', item= CCCN(CCC)c1ccc(NC(=O)c2ccc(CN(Cc3ncc[nH]3)Cc3ncc[nH]3)cc2)cc1 [Compound No. 15] )
Solution: 46.9

Exercise: # get_value(readout='inhibition at 0.1 µM', item= CCCN(CCC)Cc1ccc(NC(=O)c2ccc(CN(Cc3ccc(C)cn3)Cc3ncc[nH]3)cc2)cc1 [Compound No. 56] )
Solution: 98.8

Exercise: # get_value(readout='inhibition at 0.1 µM', item= CCCN(CCC)Cc1ccc(NC(=O)c2ccc(CN(Cc3ccc4ccccc4n3)Cc3ncc[nH]3)cc2)cc1 [Compound No. 55] )
Solution: 21

---

Item-by-item account of inhibition at 0.1 µM
MEASURED TARGET: CXCR4 (Homo sapiens, UniProt P61073)
Construct: endogenous in cells; host or cells: MT-4 cells
TEST PROTOCOL: Inhibition of 125I-SDF-1α binding to receptors CXCR4 on MT-4 cells (Test Examples 2 and 5)
CONDITION DESCRIPTION: binding-inhibition % at 0.1 μM; 125I-SDF-1α, MT-4 cells, 2 hours under ice-cooling; read-out: Inhibition rate (%)
Please give a number only; it is taken to be in %.

A selection of reference data follows.
CCCN(CCC)CCCCNCc1ccc(CN(Cc2ncc[nH]2)Cc2ncc[nH]2)cc1 [Compound No. 25]
100
CCCN(CCC)Cc1ccc(NC(=O)c2ccc(CN(Cc3ncc[nH]3)Cc3nc4ccccc4[nH]3)cc2)cc1 [Compound No. 61]
100

Exercise: # get_value(readout='inhibition at 0.1 µM', item= CCCN(CCC)CCCCNCc1ccc(CN(Cc2ccc(C)cn2)Cc2ncc[nH]2)cc1 [Compound No. 75] )
Solution: 100

Exercise: # get_value(readout='inhibition at 0.1 µM', item= O=C(NCCCCNCc1ccccc1C(F)(F)F)c1ccc(CN(Cc2ncc[nH]2)Cc2ncc[nH]2)cc1 [Compound No. 11] )
Solution: 95

---

Item-by-item account of inhibition at 0.1 µM
MEASURED TARGET: CXCR4 (Homo sapiens)
Construct: endogenous in cells; host or cells: MT-4 cells
TEST PROTOCOL: Inhibition of 125I-SDF-1α binding to receptors CXCR4 on MT-4 cells (Test Examples 2 and 5)
CONDITION DESCRIPTION: binding-inhibition % at 0.1 μM, as in Test Example 2; Table 5; read-out: CXCR4 Activity % at 0.1 μM
Please give a number only; it is taken to be in %.

A selection of reference data follows.
CCCN(CCC)Cc1ccc(NC(=O)c2ccc(CN(Cc3ncc[nH]3)Cc3nccn3C)cc2)cc1
100
CCCN(CCC)Cc1ccc(NC(=O)c2ccc(CN(Cc3ncc[nH]3)Cc3nccn3CCO)cc2)cc1
100
CCCN(CCC)Cc1ccc(NC(=O)c2ccc(CN(Cc3ncc[nH]3)Cc3ncccc3OCC)cc2)cc1
98.2
CCCN(CCC)Cc1ccc(NC(=O)c2ccc(CN(Cc3ncc[nH]3)Cc3ncc[nH]3)c3ccccc23)cc1
89.6
CCCN(CCC)Cc1ccc(NC(=O)c2ccc(CN(Cc3ncc[nH]3)Cc3nccc4ccccc34)cc2)cc1
14.7
CCCN(CCC)Cc1ccc(NC(=O)c2ccc(CN(Cc3ccccn3)Cc3ncc[nH]3)cc2)cc1
97.7

For the next question, use this molecule.
Exercise: # get_value(readout='inhibition at 0.1 µM', item= CCCN(CCC)Cc1ccc(NC(=O)c2ccc(CN(Cc3nc[nH]n3)Cc3ncc[nH]3)cc2)cc1 )
Solution: 96.4

---

Item-by-item account of pEC50
Tested on: HIV-1IIIB infected MT-4 cells
TEST PROTOCOL: Antiviral activity in HIV-1IIIB infected MT-4 cells, MTT method (Test Examples 1 and 5)
Assay type: cell-based
CONDITION DESCRIPTION: Human immunodeficiency virus 1, MT4; as in Test Example 1; Table 5; read-out: HIV Activity EC50
// scale note: pEC50 = -log10(conc_M); give the bare number

A selection of reference data follows.
O=C(Nc1ccc(CNC2CCCCC2)cc1)c1ccc(CN(Cc2ncc[nH]2)Cc2ncc[nH]2)cc1 [Compound No. 89]
8.05
CCCN(CCC)Cc1cccc(NC(=O)c2ccc(CN(Cc3ncc[nH]3)Cc3ncc[nH]3)cc2)c1 [Compound No. 33]
7.34
CCCN(CCC)Cc1ccc(NC(=O)c2ccc(CN(Cc3ccc(CC)cn3)Cc3ncc[nH]3)cc2)cc1 [Compound No. 102]
8.52

Exercise: # get_value(readout='pEC50', item= CCCN(CCC)Cc1ccc(NC(=O)c2ccc(CN(Cc3cc(C)ccn3)Cc3ncc[nH]3)cc2)cc1 [Compound No. 78] )
Solution: 7.72

---

Item-by-item account of log10(EC50)
Tested on: HIV-1IIIB infected MT-4 cells
TEST PROTOCOL: Antiviral activity in HIV-1IIIB infected MT-4 cells, MTT method (Test Examples 1 and 5)
Type: cell-based
CONDITION DESCRIPTION: Human immunodeficiency virus 1, MT4; as in Test Example 1; Table 5; read-out: HIV Activity EC50
The common logarithm of EC50 in nM is what is listed.

Exercise: # get_value(readout='log10(EC50)', item= CCCN(CCC)Cc1ccc(NC(=O)c2ccc(CN(Cc3ccc4cccc(O)c4n3)Cc3ncc[nH]3)cc2)cc1 )
Solution: 0.60
